For each of the binders below, state its EC50.
- study.target: full-length beta-Catenin (Uniprot ID P35222) (Homo sapiens (Human)) (UniProt P35222)
- Sequence (P35222 whole entry): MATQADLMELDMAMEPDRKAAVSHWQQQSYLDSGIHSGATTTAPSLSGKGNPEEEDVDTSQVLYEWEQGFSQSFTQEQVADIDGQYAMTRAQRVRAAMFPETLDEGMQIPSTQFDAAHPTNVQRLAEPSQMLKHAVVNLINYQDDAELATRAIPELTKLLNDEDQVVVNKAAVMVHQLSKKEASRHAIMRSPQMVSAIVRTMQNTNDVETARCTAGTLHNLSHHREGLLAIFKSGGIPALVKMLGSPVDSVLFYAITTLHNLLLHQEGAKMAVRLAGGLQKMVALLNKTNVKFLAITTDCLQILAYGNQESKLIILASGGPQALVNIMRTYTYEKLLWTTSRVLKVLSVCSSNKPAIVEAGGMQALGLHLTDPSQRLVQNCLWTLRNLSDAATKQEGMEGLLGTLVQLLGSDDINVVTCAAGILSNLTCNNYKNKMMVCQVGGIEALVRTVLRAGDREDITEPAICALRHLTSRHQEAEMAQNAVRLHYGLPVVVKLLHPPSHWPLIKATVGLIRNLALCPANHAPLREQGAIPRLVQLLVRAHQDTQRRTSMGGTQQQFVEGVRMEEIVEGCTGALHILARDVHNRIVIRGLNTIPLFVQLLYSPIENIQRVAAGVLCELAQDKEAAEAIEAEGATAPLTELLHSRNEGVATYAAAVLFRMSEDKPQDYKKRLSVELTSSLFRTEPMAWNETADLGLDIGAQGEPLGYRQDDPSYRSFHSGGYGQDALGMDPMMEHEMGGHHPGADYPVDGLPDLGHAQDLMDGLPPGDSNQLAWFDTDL
- assay.method.text: fluorescence polarization competition; full-length beta-catenin + 5FAM-TCF4(10-53) probe
Starred links: 1 amine or outer side, 2 acyl side, 3 side chain; linkers in the order of their positions; H or OH if unused. Positions of bridges follow the written chain, without caps; N, C: chain ends. Non-standard residues stand in square brackets, D forms with d. Primed or numbered codes have the meaning given here. PyrS2″ = (S)-3-amino-1-((pent-4-en-1-yloxy)carbonyl)pyrrolidine-3-carboxylic acid (stapling residue), C=CCCCOC(=O)N1CC[C@@](N[*:1])(C(=O)[*:2])C1; B5(5) = 2,2-bis(4-pentenyl)glycine, 2-amino-2-(pent-4-en-1-yl)hept-6-enoic acid (stitching residue), C=CCCCC(CCCC=C)(N[*:1])C(=O)[*:2]; PyrS2 = (S)-3-amino-1-((pent-4-en-1-yloxy)carbonyl)pyrrolidine-3-carboxylic acid, C=CCCCOC(=O)N1CC[C@@](N[*:1])(C(=O)[*:2])C1; B5(3) = 2,2-bis(4-pentenyl)glycine (stitching residue), C=CCCCC(CCCC=C)(N[*:1])C(=O)[*:2]; Phe(3-CF3) = N[C@@H](Cc1cccc(C(F)(F)F)c1)C(=O)O; Phe(2-Cl) = N[C@@H](Cc1ccccc1Cl)C(=O)O; Bta = N[C@@H](Cc1csc2ccccc12)C(=O)O; Lys(iPr) = CC(C)NCCCC[C@H](N)C(=O)O; αAllylPro = C=CC[C@@]1(C(=O)O)CCCN1; tBuAla = CC(C)(C)C[C@H](N)C(=O)O
Kindly answer with a numeric value in µM, unit omitted.

Form field: reported EC50 of Ac-[αAllylPro]D[tBuAla][B5(3)]DTAA[Phe(3-CF3)]T[PyrS2″]F[Bta]S-NH2 (staple 1-4; staple 4-11 (inferred); not fully specified; printed as Ac-PL3-Asp-Npg-B5-Asp-Thr-Ala-Ala-3F3MeF-Thr-PyrS2-Phe-BztA-Ser-NH2) [I-1268]
0.198

For the binder shown here, Ac-[αAllylPro]D[tBuAla][B5(5)]DD[Lys(iPr)]AFL[PyrS2″][Phe(2-Cl)][Bta]Q-NH2 (staple 1-4; staple 4-11 (inferred); not fully specified; printed as Ac-PL3-Asp-Npg-B5-Asp-Asp-iPrLys-Ala-Phe-Leu-PyrS2-2C1F-BztA-Gln-NH2) [I-1275] , give the reported EC50.
0.009

Dear colleague, I am looking for the recorded EC50 of the following binder: Ac-[αAllylPro]D[tBuAla][B5(5)]DDAAF[Lys(iPr)][PyrS2][Phe(2-Cl)][Bta]Q-NH2 (staple 1-4, 4-11; not fully specified; printed as Ac-PL3-Asp-Npg-B5-Asp-Asp-Ala-Ala-Phe-iPrLys-PyrS2-2C1F-BztA-Gln-NH2) [I-1278]
0.01
